# Tested on: Bacillus subtilis
# Experimental protocol: cleaved RNA product abundance (RNA/gDNA barcode ratio) relative to median wild-type variant (ratio to wild type); higher = more accumulation of the downstream cleavage product
# Settings: experiment (reporter, strain, medium): exp 4a: truncated aprE reporter, strain BJT201 with 2% xylose (RNase J1 expressed); cleavage site: cggR-gapA (positions -7 to +36 mutated)

# Residue codes, Tested system, cleaved RNA product abundance
rows = [
    ("ACAGACGAAGGAGCCGCAAAGAAGTTATTAAGGGATGAATAATCCCTCAATATTAATATCTCTCACTTATTTAAA", "Bacillus subtilis", 0.113),
    ("ACAGACGAAGGAGCCGCAAAGAAGTTATTAAGCGCTGAATAATCCCTCAATATAAATATCTCTCACTTATTTAAA", "Bacillus subtilis", 0.0581),
    ("ACAGACGAAGGAGCCGCAAAGAAGTTAGTAAGGGATCAATAATCCCTCAATATAAATATCTCTCACTTATTTAAA", "Bacillus subtilis", 0.305),
    ("ACAGACGAAGGAGCCGCAAAGCAGTTATTAAGGGATGAATAATCCCTAAATATAAATATCTCTCACTTATTTAAA", "Bacillus subtilis", 0.591),
    ("ACAGACGAAGGAGCCGCAAAGAAGTTATTAAGGGATCAATTATCCCTCAATATAAATATCTCTCACTTATTTAAA", "Bacillus subtilis", 1.23),
    ("ACAGACGAAGGAGCCGCAAAGAAGTTGTTAAGGGATGAATAATCCCTAAATATAAATATCTCTCACTTATTTAAA", "Bacillus subtilis", 0.376),
    ("ACAGACGAAGGAGCCGCAAAGGAGTTATTAAGGGATGAATAATCCCTCACTATAAATATCTCTCACTTATTTAAA", "Bacillus subtilis", 0.302),
    ("ACAGACGAAGGAGCCGCAAAGAAGTTATTAAGGGATCAATAATCCATCAATATAAATATCTCTCACTTATTTAAA", "Bacillus subtilis", 0.312),
    ("ACAGACGAAGGAGCCGCAAACAAGTTATTAAGGGATAAATAATCCCTCAATATAAATATCTCTCACTTATTTAAA", "Bacillus subtilis", 0.649),
    ("ACAGACGAAGGAGCCGCAAAGAAGTTATTAAGGGAAGAATAATCCATCAATATAAATATCTCTCACTTATTTAAA", "Bacillus subtilis", 0.105),
    ("ACAGACGAAGGAGCCGCAAAGTAGTTATTAAGGGATGAACAATCCCTCAATATAAATATCTCTCACTTATTTAAA", "Bacillus subtilis", 0.763),
    ("ACAGACGAAGGAGCCGCTAAGAAGTTATTAAGGGATTAATAATCCCTCAATATAAATATCTCTCACTTATTTAAA", "Bacillus subtilis", 1.02),
    ("ACAGACGAAGGAGCCGCGAAGAAGTTATTAAGGGATGAATAATCTCTCAATATAAATATCTCTCACTTATTTAAA", "Bacillus subtilis", 0.671),
    ("ACAGACGAAGGAGCCGCAAAGAAGATATTAAGGGATGAATTATCCCTCAATATAAATATCTCTCACTTATTTAAA", "Bacillus subtilis", 0.572),
    ("ACAGACGAAGGAGCCGCAAAGAAGTTATTAAGGGATGAATAATTGCTCAATATAAATATCTCTCACTTATTTAAA", "Bacillus subtilis", 0.0655),
    ("ACAGACGAAGGAGCCGCAAAGAAGTTATTAAGGGATGAATAATCGCTCAATATATATATCTCTCACTTATTTAAA", "Bacillus subtilis", 0.0772),
    ("ACAGACGAAGGAGCCGCAAAAAAGTTATTAAGGGGTGAATAATCCCTCAATATAAATATCTCTCACTTATTTAAA", "Bacillus subtilis", 0.602),
    ("ACAGACGAAGGAGCCGCAAAGAAGTTCTTAAGGGATTAATAATCCCTCAATATAAATATCTCTCACTTATTTAAA", "Bacillus subtilis", 0.301),
    ("ACAGACGAAGGAGCCGCAAAGAATTTATTAAGGGATTAATAATCACTCAATATAAATATCTCTCACTTATTTAAA", "Bacillus subtilis", 0.153),
    ("ACAGACGAAGGAGCCGCAAAGAAGTTATTAAGGGATAAATAATCCCACAATATAAATATCTCTCACTTATTTAAA", "Bacillus subtilis", 0.356),
    ("ACAGACGAAGGAGCCGCAAAGAAGTTATTAAGGCATGAATAATCCCTCAATATAAATAGCTCTCACTTATTTAAA", "Bacillus subtilis", 0.0902),
    ("ACAGACGAAGGAGCCGCAAAGAAGTTATTAAAGGCTGAATAATCCCTCAATATAAATATCTCTCACTTATTTAAA", "Bacillus subtilis", 0.0571),
    ("ACAGACGAAGGAGCCGCAAAAAAGTTATGAAGGGATGAATAATCCCTCAATATAAATATCTCTCACTTATTTAAA", "Bacillus subtilis", 0.453),
    ("ACAGACGAAGGAGCCGCAAAGAAGTTATTAAGGGATGAATAATCCCCCAATATAAACATCTCTCACTTATTTAAA", "Bacillus subtilis", 0.291),
    ("ACAGACGAAGGAGCCGCAAAAAAGTTATTAAGGGATGTATAATCCCTCAATATAAATATCTCTCACTTATTTAAA", "Bacillus subtilis", 1.09),
    ("ACAGACGAAGGAGCCGCAAAGAAGTTATTAAGGGATGAATAATTCCTGAATATAAATATCTCTCACTTATTTAAA", "Bacillus subtilis", 0.471),
    ("ACAGACGAAGGAGCCGCAAAGAAGTTATTAACGGATGAAGAATCCCTCAATATAAATATCTCTCACTTATTTAAA", "Bacillus subtilis", 0.17),
    ("ACAGACGAAGGAGCCGCAAAGAAGTTATTAACGGATGAATAATCCCTCAATATAAATATCTCTCACTTATTAAAG", "Bacillus subtilis", 0.172),
    ("ACAGACGAAGGAGCCGCAAACAAGTTATTAAGGGATCAATAATCCCTCAATATAAATATCTCTCACTTATTTAAA", "Bacillus subtilis", 0.443),
    ("ACAGACGAAGGAGCCGCAAAGAAGTTATTCAGGGAAGAATAATCCCTCAATATAAATATCTCTCACTTATTTAAA", "Bacillus subtilis", 0.697),
]
